target: Gamma-secretase; assay: Inhibition of gamma secretase isolated from HeLa cells by ELISA; format: cell-free, Homo sapiens
IC50 strictly less than 900 nM = fulfilled. Otherwise not fulfilled.

Task: For this compound, is IC50 lower than 900 nM? "COC(=O)[C@H](NC(=O)[C@@H](CC(C)C)NC(=O)N(Cc1ccccc1)C[C@H](O)[C@@H](Cc1ccccc1)NC(=O)OC(C)(C)C)C(C)C"
Output: not fulfilled

Task: For this compound, is IC50 lower than 900 nM? "COC(=O)[C@@H](Cc1ccccc1)NC(=O)[C@@H](CC(C)C)NC(=O)N(Cc1ccccc1)C[C@@H](O)[C@@H](Cc1ccccc1)NC(=O)OC(C)(C)C"
Output: fulfilled

Task: For this compound, is IC50 lower than 900 nM? "COC(=O)[C@H](NC(=O)[C@@H](CC(C)C)NC(=O)N(C)C[C@@H](O)[C@@H](Cc1ccccc1)NC(=O)OC(C)(C)C)C(C)C"
Output: not fulfilled

Task: For this compound, is IC50 lower than 900 nM? "COC(=O)[C@@H](C)NC(=O)[C@@H](CC(C)C)NC(=O)N(Cc1ccccc1)C[C@@H](O)[C@@H](Cc1ccccc1)NC(=O)OC(C)(C)C"
Output: not fulfilled

Task: For this compound, is IC50 lower than 900 nM? "COC(=O)[C@@H](NC(=O)[C@@H](CC(C)C)NC(=O)N(Cc1ccccc1)C[C@@H](O)[C@H](Cc1ccccc1)NC(=O)OC(C)(C)C)C(C)C"
Output: fulfilled

Task: For this compound, is IC50 lower than 900 nM? "COC(=O)[C@@H](NC(=O)[C@@H](CC(C)C)NC(=O)N(Cc1ccccc1)C[C@@H](O)[C@@H](Cc1ccccc1)NC(=O)OC(C)(C)C)C(C)C"
Output: fulfilled

Task: For this compound, is IC50 lower than 900 nM? "COC(=O)[C@H](NC(=O)[C@@H](CC(C)C)NC(=O)N(Cc1ccccc1)C[C@@H](O)[C@@H](Cc1ccccc1)NC(=O)[C@@H](Cc1ccccc1)NC(=O)OC(C)(C)C)C(C)C"
Output: not fulfilled

Task: For this compound, is IC50 lower than 900 nM? "COC(=O)[C@H](NC(=O)[C@@H](CC(C)C)NC(=O)N(Cc1ccccc1)C[C@@H](O)[C@@H](Cc1ccccc1)NC(=O)OC(C)(C)C)C(C)C"
Output: fulfilled

Task: For this compound, is IC50 lower than 900 nM? "COC(=O)[C@H](NC(=O)[C@@H](CC(C)C)NC(=O)N(CC(C)C)C[C@@H](O)[C@@H](Cc1ccccc1)NC(=O)OC(C)(C)C)C(C)C"
Output: not fulfilled

Task: For this compound, is IC50 lower than 900 nM? "COC(=O)[C@@H](CC(C)C)NC(=O)N(Cc1ccccc1)C[C@@H](O)[C@@H](Cc1ccccc1)NC(=O)OC(C)(C)C"
Output: not fulfilled

Task: For this compound, is IC50 lower than 900 nM? "COC(=O)[C@H](NC(=O)[C@H](CC(C)C)NC(=O)N(Cc1ccccc1)C[C@@H](O)[C@H](Cc1ccccc1)NC(=O)OC(C)(C)C)C(C)C"
Output: fulfilled

Task: For this compound, is IC50 lower than 900 nM? "COC(=O)[C@H](NC(=O)[C@H](CC(C)C)NC(=O)N(Cc1ccccc1)C[C@@H](O)[C@@H](Cc1ccccc1)NC(=O)OC(C)(C)C)C(C)C"
Output: fulfilled

Task: For this compound, is IC50 lower than 900 nM? "COC(=O)[C@@H](NC(=O)[C@H](CC(C)C)NC(=O)N(Cc1ccccc1)C[C@@H](O)[C@@H](Cc1ccccc1)NC(=O)OC(C)(C)C)C(C)C"
Output: fulfilled

Task: For this compound, is IC50 lower than 900 nM? "COC(=O)[C@H](NC(=O)[C@@H](CC(C)C)NC(=O)N(Cc1ccccc1)C[C@@H](O)[C@@H](Cc1ccccc1)NC(=O)[C@@H](C)NC(=O)OC(C)(C)C)C(C)C"
Output: not fulfilled

Task: For this compound, is IC50 lower than 900 nM? "COC(=O)[C@H](NC(=O)[C@H](NC(=O)N(Cc1ccccc1)C[C@@H](O)[C@@H](Cc1ccccc1)NC(=O)OC(C)(C)C)C(C)C)C(C)C"
Output: not fulfilled

Task: For this compound, is IC50 lower than 900 nM? "COC(=O)[C@H](NC(=O)[C@@H](CC(C)C)NC(=O)N(Cc1ccccc1)C[C@@H](O)[C@H](Cc1ccccc1)NC(=O)OC(C)(C)C)C(C)C"
Output: fulfilled

Task: For this compound, is IC50 lower than 900 nM? "COC(=O)[C@@H](CC(C)C)NC(=O)[C@@H](CC(C)C)NC(=O)N(Cc1ccccc1)C[C@H](O)[C@@H](Cc1ccccc1)NC(=O)OC(C)(C)C"
Output: not fulfilled

Task: For this compound, is IC50 lower than 900 nM? "COC(=O)[C@H](CC(C)C)NC(=O)[C@H](CC(C)C)NC(=O)N(Cc1ccccc1)C[C@@H](O)[C@H](Cc1ccccc1)NC(=O)OC(C)(C)C"
Output: fulfilled

Task: For this compound, is IC50 lower than 900 nM? "COC(=O)[C@@H](NC(=O)[C@H](CC(C)C)NC(=O)N(Cc1ccccc1)C[C@@H](O)[C@H](Cc1ccccc1)NC(=O)OC(C)(C)C)C(C)C"
Output: fulfilled

Task: For this compound, is IC50 lower than 900 nM? "COC(=O)[C@@H](CC(C)C)NC(=O)[C@@H](CC(C)C)NC(=O)N(Cc1ccccc1)C[C@@H](O)[C@@H](Cc1ccccc1)NC(=O)OC(C)(C)C"
Output: fulfilled

Task: For this compound, is IC50 lower than 900 nM? "COC(=O)[C@H](NC(=O)[C@@H](C)NC(=O)N(Cc1ccccc1)C[C@@H](O)[C@@H](Cc1ccccc1)NC(=O)OC(C)(C)C)C(C)C"
Output: not fulfilled
